tested on: NCI/ADR-RES ovarian; experiment: NCI tumour cell line growth inhibition, 48 h
reported metric: GI50

Worked set:
>>> readout_value("CC[N+](CC)=c1sc2c(s1)C(c1ccc(Cl)cc1)Oc1ccc(Cl)cc1-2 (stereo not given)")
"21.6 µM"
>>> readout_value("COc1cccc(-c2nc3sccn3c2-c2ccnc(NCCCNS(=O)(=O)c3cccc(F)c3)c2)c1")
"2.09 µM"
>>> readout_value("CNC(=O)c1ccc(N2CCN(Cc3ccc4nc(C)c(=O)[nH]c4c3F)CC2)c(F)n1")
"78.8 µM"
>>> readout_value("C=C1C(=O)O[C@H]2C[C@@H]1CC/C(C)=C/CC/C(C)=C/CC[C@H]2C")
"7.43 µM"
>>> readout_value("Cc1ccc(C)c2c1C(O)(C#Cc1ccccc1)c1ccccc1C2(O)C#Cc1ccccc1 (stereo not given)")
"3.63 µM"
>>> readout_value("COc1cc(OC)cc(N(CCNC(C)C)c2ccc3ncc(-c4cnn(C)c4)nc3c2)c1")
"5.8 µM"

For each of the items listed, what is its GI50?
1. COc1ccc2c(c1)C(=O)c1c-2n(CCCN=[N+]=[N-])c(=O)c2cc(OC)c(OC)cc12
2. CCc1cccc(C)c1NC(=O)c1sc2nc3c(cc2c1N)CCCCC3

1: 80.1 µM; 2: 2.36 µM

For each of the items listed, what is its GI50?
1. CN(C)CCCOc1ccc(-c2ccc3ncc4c(c3c2)n(C2CCOCC2)c(=O)n4C)cn1
2. COc1cc(C#Cc2ccc(=O)oc2C#Cc2ccccc2)cc(OC)c1OC

1. 3.86 µM
2. 6.39 µM

For each of the items listed, what is its GI50?
1. OCc1ccc(-c2ccc(-c3ccc(CO)o3)[se]2)o1
2. Cc1ccc(-c2csc(/N=C3\C(=O)Nc4ccccc43)n2)cc1
3. COc1ccc(C(=O)/C=C/c2ccc(C)cc2)cc1OC
4. O=C1c2ccccc2-c2c1c1c(=O)[nH]c3ccccc3c1n2Cc1ccccc1

1: > 60.9 µM; 2: 20.7 µM; 3: 11.7 µM; 4: 52.6 µM

Please report the recorded GI50 for Cc1nn(-c2nc3ccccc3[nH]2)c(N)c1-c1ccc(Cl)cc1 .
4.84 µM

* * *

system: SF-268 CNS; test: NCI tumour cell line growth inhibition, 48 h
reported metric: TGI

>>> readout_value("COC(=O)/C=C\\n1c(C)cc(=O)[nH]c1=O")
"> 100 µM"
>>> readout_value("O=C1c2ccc(O)cc2C(=O)c2ccc(O)cc21")
"> 100 µM"
>>> readout_value("CC(=O)OCC1OC(n2c(-c3ccc(Cl)cc3)ccc(C#N)c2=S)C(OC(C)=O)C(OC(C)=O)C1OC(C)=O (stereo not given)")
"> 100 µM"
>>> readout_value("Cc1cccc2c(=O)c([Se]c3coc4c(C)cccc4c3=O)coc12")
"36.8 µM"

Now let's try a different one.
What TGI appears in the records for this compound with SF-268 CNS? BrCCCCCOc1ccc(-c2c3ccccc3c(-c3ccc(OCCCCCBr)cc3)c3ccccc23)cc1
> 100 µM

* * *

test system: U251 CNS; experiment: NCI tumour cell line growth inhibition, 48 h
// label = yes (1) if TGI is not less than 10 µM, otherwise no (0)

>>> group_label("C=C1C(=O)O[C@H]2C[C@@H]1CC/C(C)=C/CC/C(C)=C/CC[C@H]2C")
"yes (1)"
>>> group_label("COc1ccc(S(=O)(=O)Nc2ccccc2C(=O)O)cc1")
"yes (1)"
>>> group_label("COc1ccc(OC)c(/C(C)=N/NC(N)=S)c1")
"yes (1)"

Has CC(C)(C)C(=O)c1c(C(F)(F)F)n([O-])c2ccccc2[n+]1=O a recorded TGI greater than or equal to 10 µM?
no (0)

Repeat for the following compound: Cc1cc2c(ccc3c(C)cc(=O)oc32)o1
yes (1)

Repeat for the following compound: COc1ccc2c(C)cc(N/N=C/c3ccc(OC)c4ccccc34)nc2c1
yes (1)

Repeat for the following compound: CCCCCC[N+](C)(C)Cc1ccc(C[N+](C)(C)CCCCCC)cc1
no (0)

Repeat for the following compound: O=C(c1ccc(Cl)cc1)c1ccc(OCCCOc2ccc(C(=O)c3ccc(Cl)cc3)cc2)cc1
yes (1)

Repeat for the following compound: O=C(c1ccco1)N1CCCN(C(=O)c2ccco2)C1=S
yes (1)

Repeat for the following compound: CO[C@H]1/C=C/O[C@@]2(C)Oc3c(C)c(O)c4c(c3C2=O)C(=O)C(/C=N/N(c2ccccc2)c2ccccc2)=C(NC(=O)/C(C)=C\C=C\[C@H](C)[C@H](O)[C@@H](C)[C@@H](O)[C@@H](C)[C@H](OC(C)=O)[C@@H]1C)C4=O
no (0)

Repeat for the following compound: CC(C(=O)c1ccccc1)C(c1ccccc1)N1CCOCC1 (configuration not stated)
yes (1)

Repeat for the following compound: Nn1c(COc2cccc(OCc3n[nH]c(=S)n3N)c2)n[nH]c1=S
yes (1)

* * *

Consider the following compounds; for each one, report its TGI.
tested on: DU-145 prostate; experiment: NCI tumour cell line growth inhibition, 48 h
Give bare numbers, in µM.

Worked set:
>>> readout_value("COc1cc(C#Cc2ccc(=O)oc2C#Cc2ccccc2)cc(OC)c1OC")
10.7
>>> readout_value("O=C(CO[N+](=O)[O-])Nc1ccc(C(=O)/C=C/c2ccc(Cl)cc2)cc1")
13.5
>>> readout_value("Clc1nc(Cl)c2ncn(Cc3cccc(Cn4cnc5c(Cl)nc(Cl)nc54)c3)c2n1")
3.09

Now let's try a different one.
What TGI appears in the records for this compound with DU-145 prostate? C#CCOc1cccc(-c2ncnc3cc(NC(=O)CCl)ccc23)c1
2.47

* * *

system: SW-620 colon; assay: NCI tumour cell line growth inhibition, 48 h
reported metric: TGI (µM)
Numbers only, in µM.

>>> readout_value("C#Cc1cccc(N2C(=O)CCC2=O)c1")
19.2
>>> readout_value("CC[N+](CC)=c1sc2c(s1)C(c1ccc(Cl)cc1)Oc1ccc(Cl)cc1-2 (stereo not given)")
2.72

For each of the items listed, what is its TGI?
1. CC(C)(C)N=NNc1cn(C2OC(CO)C(O)C2O)c(=O)[nH]c1=O (stereo not given)
2. N/C(=N\S(=O)(=O)c1ccc(S(=O)(=O)c2ccccc2)s1)Nc1ccc(Cl)cc1

34.7
44.8

* * *

tested on: SK-MEL-28 melanoma; assay: NCI tumour cell line growth inhibition, 48 h
reported metric: TGI

>>> readout_value("Cc1nc(Nc2ccc(Cl)cc2)sc1C(=O)NNc1ccc([N+](=O)[O-])cc1[N+](=O)[O-]")
"34.1 µM"

For each of the items listed, what is its TGI?
1. O=C(CC(c1ccccc1)c1c(O)c2ccccc2oc1=O)c1ccccc1 (stereo not given)
2. CC(C)(C)N=NNc1cn(C2OC(CO)C(O)C2O)c(=O)[nH]c1=O (stereo not given)
3. COc1ccc(S(=O)(=O)Nc2ccccc2C(=O)O)cc1
4. CCOC(=O)c1sc(-c2ccc(OS(=O)(=O)c3ccc(Br)s3)c(C=O)c2)nc1C
5. CCCSc1ccc2[nH]c(N3C(=O)/C(=C/c4ccco4)N=C3c3ccccc3)cc2c1
6. Cc1nn(-c2nc3ccccc3[nH]2)c(N)c1-c1ccc(Cl)cc1
7. COc1cc(C#Cc2ccc(=O)oc2C#Cc2ccccc2)cc(OC)c1OC

1: > 100 µM; 2: > 100 µM; 3: > 100 µM; 4: 33.4 µM; 5: > 50 µM; 6: > 100 µM; 7: 7.22 µM

For each of the items listed, what is its TGI?
1. O=S(=O)(c1ccccc1)n1c2ccc(Br)cc2c2nc3ccccc3nc21
2. O=C1c2ccc(O)cc2C(=O)c2ccc(O)cc21

1. > 100 µM
2. > 100 µM

* * *

test system: SK-MEL-2 melanoma; assay: NCI tumour cell line growth inhibition, 48 h
Consider the following molecules; for each one, report its TGI.

>>> readout_value("CCCN1C(=O)CC(C)N(Cc2ccccc2Cl)C1=S (configuration not stated)")
"44.1 µM"
>>> readout_value("CCC(CON(C)c1ccccc1)(SC)SC")
"> 100 µM"
>>> readout_value("CCOP(=O)(OCC)/C(C#N)=C/c1cn(C)cn1")
"> 100 µM"
>>> readout_value("O=S(=O)(Nc1ccccc1Cl)c1ccc(-c2cnc(C3CC3)o2)cc1")
"> 100 µM"
>>> readout_value("O=C1NC(SSC2=NNC3(C(=O)N2)c2ccccc2-c2ccccc23)=NNC12c1ccccc1-c1ccccc12")
"> 10 µM"

For each of the items listed, what is its TGI?
1. COc1cc2c(cc1OC)C(C(CO)CO)N(CC(O)CCl)CC2 (configuration not stated)
2. FC(F)(F)c1nc2nc(Cl)c(Cl)nc2n1CCCN1CCOCC1

1. > 100 µM
2. > 100 µM

For each of the items listed, what is its TGI?
1. CCCN(CCCC(NC(C)=O)C(=O)NCc1ccccc1)C(=O)N(CCCl)N=O (configuration not stated)
2. COc1ccc2nc3c([N+](=O)[O-])ccc4c3c(c2c1)NCCN4CCO
3. CC(C)=CCc1c(OC(=O)c2c(C)cc(O)cc2O)cc(CO)c(CO)c1O
4. CC(=O)OCCCOCn1c(Cc2ccccc2)c(C)c(=O)[nH]c1=O
5. O=CN1CCN(C(=O)c2ccc(Cl)cc2Cl)C1=S
6. COCCCNC(=O)C1C(=O)N(CCCOC)C(=O)/C1=N\N (configuration not stated)

1. 43.9 µM
2. 1.87 µM
3. 59.5 µM
4. > 100 µM
5. > 100 µM
6. > 100 µM

For each of the items listed, what is its TGI?
1. COc1ccc(-c2cc(=O)c3cc4c(cc3[nH]2)OCO4)cc1OC
2. CCN(Cc1cccc(F)c1)c1ccc(CO)c(Cl)c1
3. N[C@H](C(=O)O)[C@H]1ON=C(Cl)[C@@H]1O
4. OCc1ccc(-c2ccc(-c3ccc(CO)o3)[se]2)o1
5. C[Si](C)(OCCS(=O)(=O)O)C1(Cc2cccc3ccccc23)S(=O)(=O)OCCOS1(=O)=O
6. COc1cc(-c2cc3ncccc3c3nc(N)c4cccnc4c23)cc(OC)c1OC
7. CC(=O)O[C@H]1CC[C@@]2(C)C(=CC[C@H]3[C@@H]4CC[C@H](c5cc(C(F)(F)F)n(C(C)=O)n5)[C@@]4(C)CC[C@@H]32)C1
8. CC(=O)OCCOCn1c2c(c(=S)[nH]c1=O)CCC2

["> 100 µM", "25.1 µM", "> 550 µM", "> 100 µM", "46.3 µM", "8.86 µM", "20.8 µM", "> 100 µM"]
